target: Genome polyprotein (Poliovirus type 1 (strain Mahoney)) (UniProt P03300)
Sequence (P03300 1749-2209 limits assumed): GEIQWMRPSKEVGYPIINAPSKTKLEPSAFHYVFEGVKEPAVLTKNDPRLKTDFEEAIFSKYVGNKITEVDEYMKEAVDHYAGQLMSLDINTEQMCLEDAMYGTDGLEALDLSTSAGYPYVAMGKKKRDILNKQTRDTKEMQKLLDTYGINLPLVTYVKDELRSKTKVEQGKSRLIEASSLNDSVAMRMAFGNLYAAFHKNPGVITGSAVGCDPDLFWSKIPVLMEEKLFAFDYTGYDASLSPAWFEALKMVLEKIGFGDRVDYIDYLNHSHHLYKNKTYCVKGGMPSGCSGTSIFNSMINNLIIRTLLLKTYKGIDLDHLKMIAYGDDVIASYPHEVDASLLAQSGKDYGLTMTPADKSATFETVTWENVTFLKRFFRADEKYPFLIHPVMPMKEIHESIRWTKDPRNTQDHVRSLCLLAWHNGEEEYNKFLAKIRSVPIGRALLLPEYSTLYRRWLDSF
method: poliovirus RdRp elongation inhibitors, primary screen, biochemical, fluorescence polarization, total intensity (AID 588519)
experimental.setup: poliovirus polymerase elongation, measured here: total intensity read-out, stronger effect = lower value, compound at 16.7 µg/mL
About 1,000 (0.67%) of roughly 150,000 compounds were called active. The list comes from a sample in which actives are over-represented; it also holds close analogues and randomly drawn compounds.
measured.attribute: % elongation (%)
Respond with the bare value in %.

> print(dat)
                                   molecule                                    target  measured.attribute  result.value
1   Cc1ccc2oc(=O)c3cc(C(=O)NC4CCCC4)sc3c2c1  Genome polyprotein (Poliovirus type 1 (strain Mahoney)) (UniProt P03300)        % elongation            98
2  CCOCCCNC(=O)c1c(NC(=O)Cc2coc3ccc(C)cc23)sc2c1CCC2  Genome polyprotein (Poliovirus type 1 (strain Mahoney)) (UniProt P03300)        % elongation           114
3  CC(=O)Nc1ccc(NC(=O)C(C)OC(=O)Cc2c[nH]c3ccccc23)cc1 (stereo not drawn)  Genome polyprotein (Poliovirus type 1 (strain Mahoney)) (UniProt P03300)        % elongation           108
4  O=C(COC(=O)c1cc(=O)[nH]c2ccccc12)NCc1ccco1  Genome polyprotein (Poliovirus type 1 (strain Mahoney)) (UniProt P03300)        % elongation           101

What value of measured % elongation is listed for CCSc1nsc(SCC)c1C(=O)O ?
96

What value of measured % elongation is listed for O=C1CCCCCN1Cc1nnc(SCN2C(=O)c3ccccc3C2=O)n1-c1ccccn1 ?
100

What value of measured % elongation is listed for CC(C)(C)CNC(=S)NN ?
101
